B1: MCOLN1 (parent)
chain: EEEDLRRRLKYFFMSPCDKFRAKG

variants of: B1; assay: protein stability index of a GFP-peptide fusion (GPS, HEK-293T) (PSI 1-6); higher = more stable; conditions: c terminus: a fixed tail appended;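 further: lentivirally expressed fusions sorted by FACS into six bins by GFP to DsRed ratio, PSI derived from sequencing read proportions per bin multiplied by bin number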
The following variants are shown together with reported protein stability index values.
# print the numeric value only

Here is how some variants turned out for protein stability index.
INSERT INTO results (variant, valuemeasured) VALUES
  ('D18P', 1.73),
  ('D4E', 2.08),
  ('R8S', 2.67);

## Input Answer with reported protein stability index of R7C
## Output 2.38

## Input Answer with reported protein stability index of D4F
## Output 1.42

## Input Answer with reported protein stability index of F20L
## Output 3.33
